Origin of values: ChEMBL document CHEMBL5352506

# Tested on: K562
# Protocol Description: Antiproliferative activity against human K562 cells assessed as inhibition of cell growth by MTT assay
# Assay type: functional, cell-based
Parameter Measured: IC50 (µM)
# output: bare number, implied unit µM

May I ask what IC50 has been recorded for `O=C(CCCCCSc1nc[nH]n1)Nc1ccccc1` ?
11.1

###

Would you kindly list IC50 for each of these molecules?
# Assayed Target: Histone deacetylase (HDAC1 and HDAC2) (Homo sapiens, UniProt Q13547+Q92769)
# Protocol Description: Inhibition of HDAC1/2 in human K562 nuclear extraction
# Type: cell-free

May I ask what IC50 has been recorded for `CNC(=O)C(=O)CCCCCCOc1ccc(-c2ccccc2)cc1` ?
0.11 µM

Now this one: `CN(C)C(=O)C(=O)CCCCCCOc1ccc(-c2ccccc2)cc1`
> 5 µM

Now this one: `O=C(O)CNC(=O)C(=O)CCCCCCOc1ccc(-c2ccccc2)cc1`
> 50 µM

Now this one: `CCNC(=O)C(=O)CCCCCCOc1ccc(-c2ccccc2)cc1`
4.9 µM

Now this one: `NC(=O)C(=O)CCCCCCOc1ccc(-c2ccccc2)cc1`
> 50 µM

Now this one: `CN(C)CCNC(=O)C(=O)CCCCCCOc1ccc(-c2ccccc2)cc1`
> 50 µM
